Attribution: paper PMC7702303

- target-under-test: recombinant human PFK-M (Homo sapiens)
- Construct: made in house; host or cells: PFK-deficient Saccharomyces cerevisiae
- Sequence (P08237 whole entry): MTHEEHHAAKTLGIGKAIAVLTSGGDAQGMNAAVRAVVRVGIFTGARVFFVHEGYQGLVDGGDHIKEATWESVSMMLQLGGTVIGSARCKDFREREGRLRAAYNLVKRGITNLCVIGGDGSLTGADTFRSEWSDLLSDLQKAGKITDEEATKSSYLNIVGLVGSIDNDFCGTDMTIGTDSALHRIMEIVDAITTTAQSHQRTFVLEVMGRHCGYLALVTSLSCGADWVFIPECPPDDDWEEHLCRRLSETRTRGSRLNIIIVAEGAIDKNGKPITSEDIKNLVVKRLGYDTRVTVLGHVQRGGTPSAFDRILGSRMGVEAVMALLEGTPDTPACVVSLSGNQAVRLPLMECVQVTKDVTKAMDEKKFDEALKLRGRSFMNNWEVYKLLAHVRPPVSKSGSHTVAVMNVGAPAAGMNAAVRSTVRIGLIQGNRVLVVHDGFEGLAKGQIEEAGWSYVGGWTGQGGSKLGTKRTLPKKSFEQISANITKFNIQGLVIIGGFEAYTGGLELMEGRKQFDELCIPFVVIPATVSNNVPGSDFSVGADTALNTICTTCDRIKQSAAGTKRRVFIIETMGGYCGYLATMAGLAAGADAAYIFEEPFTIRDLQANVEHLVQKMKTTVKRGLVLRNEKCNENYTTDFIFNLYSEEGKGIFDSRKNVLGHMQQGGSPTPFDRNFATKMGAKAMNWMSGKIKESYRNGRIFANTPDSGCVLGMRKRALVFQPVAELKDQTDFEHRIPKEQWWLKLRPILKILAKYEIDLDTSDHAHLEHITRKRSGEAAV
- assay-text: ALDO-TIM-G3PDH enzyme-linked kinetic assay, PFK-M
- Type: biochemical
- assay-setup: dose-response, read-out: IC50^citrate
pIC50: −log10 of the molar value.

compound | pIC50
O=C(O)CC(O)(CC(=O)O)C(=O)O [Citrate] | 3.01
